Below: a set of entries, each annotated with reported abundance fitness.
B1: Homeobox protein cut-like 1, residues 548 to 629; numbered along this chain, P39880 (parent)
chain: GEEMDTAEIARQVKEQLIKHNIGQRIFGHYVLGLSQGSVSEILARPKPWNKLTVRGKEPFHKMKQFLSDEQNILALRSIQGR

variants of: B1; assay: abundance fitness (aPCA) (normalised: wild type 0, dead -1); higher = more abundant; growth selection in yeast, the domain comes from the species named; details: Homo sapiens
reported-property: abundance fitness

INSERT INTO assay_data (variant_description, reading) VALUES
  ('N21S', -0.084),
  ('E2F', -0.107),
  ('E41R', -0.851),
  ('K64Y', -0.112),
  ('Q24S', -0.118),
  ('L74I', 0.032),
  ('I79Q', 0.011),
  ('G1A', -0.064),
  ('A44P', -0.709),
  ('A7G', -0.17),
  ('R55C', -0.051),
  ('M4E', -0.191),
  ('Q65T', -0.029),
  ('N50Q', -0.057),
  ('L32M', -0.317),
  ('G23P', 0.08),
  ('H29T', -0.022),
  ('F66H', -0.966),
  ('K47V', -0.015),
  ('L43E', -0.89),
  ('S35D', 0.154),
  ('E58A', -0.168),
  ('G56S', -0.254),
  ('R45W', -0.201),
  ('A75N', 0.187),
  ('E41Q', -0.204),
  ('H20D', -0.722),
  ('L34G', -0.461),
  ('F27Y', -1.15),
  ('N72I', -0.289),
  ('F27M', -0.857),
  ('L17T', -0.518),
  ('F27V', -0.815),
  ('I22T', -0.687),
  ('N50W', -0.151),
  ('I79M', 0.046),
  ('I26R', -0.401),
  ('E41W', -0.522),
  ('G23F', -0.293),
  ('F66P', -0.77),
  ('G81D', 0.043);

Origin of measurements: the Human Domainome abundance scans (Beltran et al. 2025)
